Target: T1, cynomolgus CD3 epsilon/delta heterodimer, biotin labeled (cynomolgus, UniProt Q95LI8 22-105, biotin labeled)
T1 construct: bought (Acro Biosystems); also called Cyno CD3e/d
T1 sequence (chain, as listed by the source mutant, chain 1 of 2): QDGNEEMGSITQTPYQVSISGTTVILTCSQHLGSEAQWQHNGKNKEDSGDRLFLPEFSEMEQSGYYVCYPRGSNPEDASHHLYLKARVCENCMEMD
T1 sequence (Q95LI8 22-105, stated change not applied, chain 2 of 2): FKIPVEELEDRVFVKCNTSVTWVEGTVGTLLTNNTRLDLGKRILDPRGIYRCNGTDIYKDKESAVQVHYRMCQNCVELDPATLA
Assay: SPR, biotinylated CD3e/d on SA chip;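 also: analytes injected over immobilized CD3 heterodimer, association 60-120 s and dissociation 120-420 s, rate and affinity constants obtained by fitting sensorgrams to a 1:1 binding model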
OBSERVATION_TYPE: log10(kon) (log10 of the value in M⁻¹ s⁻¹)

[
  {
    "BINDER": "ULBP2xCD3 bispecific CD58 fusion containing CD3 variant CD3-A6 (bispecific antibody, V domains shown) VH: EVQLLESGGGLVQPGGSLKLSCAASGFTFNDYAMNWVRKAPGKGLEWVARIRSKYNNYATYYADSVKDRFTISRDDSKNTAYLQMNNLKTEDTAVYYCVRHGNFGNSYVSWFAYWGQGTLVTVSS VL: ELVVTQEPSLTVSPGGTVTLTCRSSTGAVTTSNYANWVQDKPGQAPRGLIGGTNKRAPGTPARFSGSLLGGKAALTLSGVQPEDEAEYYCALWYSNLWVFGGGTKLTVL",
    "log10(kon)": 5.75
  },
  {
    "BINDER": "ULBP2xCD3 bispecific CD58 fusion containing CD3 variant CD3-01 (bispecific antibody, V domains shown) VH: EVQLLESGGGLVQPGGSLKLSCAASGFTFNTYAMNWVRKAPGKGLEWVARIRSKYNNYATYYADSVKDRFTISRDDSKNTAYLQMNNLKTEDTAVYYCVRHGNFGNSYVSWFAYWGQGTLVTVSS VL: ELVVTQEPSLTVSPGGTVTLTCRSSTGAVTTSNYANWVQDKPGQAPRGLIGGTNKRAPGTPARFSGSLLGGKAALTLSGVQPEDEAEYYCALWYSNLWVFGGGTKLTVL",
    "log10(kon)": 6.20
  },
  {
    "BINDER": "ULBP2xCD3 bispecific CD58 fusion containing CD3 variant CD3-A5 (bispecific antibody, V domains shown) VH: EVQLLESGGGLVQPGGSLKLSCAASGFTFNTYAMNWVRKAPGKGLEWVARIRSKYNNYATYYADSVKDRFTISRDDSKNTAYLQMNNLKTEDTAVYYCVRHGNFGDDYVSWFAYWGQGTLVTVSS VL: ELVVTQEPSLTVSPGGTVTLTCRSSTGAVTTSNYANWVQDKPGQAPRGLIGGTNKRAPGTPARFSGSLLGGKAALTLSGVQPEDEAEYYCALWYSQLWVFGGGTKLTVL",
    "log10(kon)": 4.96
  },
  {
    "BINDER": "ULBP2xCD3 bispecific CD58 fusion containing CD3 variant CD3-A2 (bispecific antibody, V domains shown) VH: EVQLLESGGGLVQPGGSLKLSCAASGFTFNTYAMNWVRKAPGKGLEWVARIRSKYNNYATYYADSVKDRFTISRDDSKNTAYLQMNNLKTEDTAVYYCVRHGNFGNSYVSWFAYWGQGTLVTVSS VL: ELVVTQEPSLTVSPGGTVTLTCRSSTGAVTTSNYANWVQDKPGQAPRGLIGDTNKRAPGTPARFSGSLLGGKAALTLSGVQPEDEAEYYCALWYSNLWVFGGGTKLTVL",
    "log10(kon)": 5.41
  },
  {
    "BINDER": "ULBP2xCD3 bispecific CD58 fusion containing CD3 variant CD3-A9 (bispecific antibody, V domains shown) VH: EVQLLESGGGLVQPGGSLKLSCAASGFTFNTYAMNWVRKAPGKGLEWVARIRSKYNNYATYYADSVKDRFTISRDDSKNTAYLQMNNLKTEDTAVYYCVRHGSFGNSYVSWFAYWGQGTLVTVSS VL: ELVVTQEPSLTVSPGGTVTLTCRSSTGAVTTSNYANWVQDKPGQAPRGLIGGTNKRAPGTPARFSGSLLGGKAALTLSGVQPEDEAEYYCALWYSQLWVFGGGTKLTVL",
    "log10(kon)": 5.53
  },
  {
    "BINDER": "ULBP2xCD3 bispecific CD58 fusion containing CD3 variant CD3-A8 (bispecific antibody, V domains shown) VH: EVQLLESGGGLVQPGGSLKLSCAASGFTFNTYAMNWVRKAPGKGLEWVAKIRSKYNNYATYYADSVKDRFTISRDDSKNTAYLQMNNLKTEDTAVYYCVRHGNFGDSYVSWFAYWGQGTLVTVSS VL: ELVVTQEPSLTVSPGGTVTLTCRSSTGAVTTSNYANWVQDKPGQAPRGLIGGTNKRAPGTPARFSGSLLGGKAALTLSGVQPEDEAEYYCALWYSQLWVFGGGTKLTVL",
    "log10(kon)": 5.65
  }
]
